# Test system: HeLa Kyoto;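 also: synchronized HeLa Kyoto cells, proteins quantified by TMT10plex mass spectrometry, three biological replicates, mitosis taken 0.5 h after nocodazole release, G1/S directly after double thymidine block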
# ASSAY: thermal stability score vs G1/S (z-score of summed log2 fold changes over temperatures); higher = more thermally stable than in G1/S
# MEASUREMENT_CONTEXT: cell cycle stage: early G1 (4.5 h after nocodazole release)
RECORDED_METRIC: thermal stability score

- SUBSTANCE: "MNSNVENLPPHIIRLVYKEVTTLTADPPDGIKVFPNEEDLTDLQVTIEGPEGTPYAGGLFRMKLLLGKDFPASPPKGYFLTKIFHPNVGANGEICVNVLKRDWTAELGIRHVLLTIKCLLIHPNPESALNEEAGRLLLENYEEYAARARLLTEIHGGAGGPSGRAEAGRALASGTEASSTDPGAPGGPGGAEGPMAKKHAGERDKKLAAKKKTDKKRALRRL [UBE2S]"
  TARGET: "HeLa Kyoto"
  READOUT_NUMBER: 1.11
- SUBSTANCE: "MAALAPLPPLPAQFKSIQHHLRTAQEHDKRDPVVAYYCRLYAMQTGMKIDSKTPECRKFLSKLMDQLEALKKQLGDNEAITQEIVGCAHLENYALKMFLYADNEDRAGRFHKNMIKSFYTASLLIDVITVFGELTDENVKHRKYARWKATYIHNCLKNGETPQAGPVGIEEDNDIEENEDAGAASLPTQPTQPSSSSTYDPSNMPSGNYTGIQIPPGAHAPANTPAEVPHSTGVASNTIQPTPQTIPAIDPALFNTISQGDVRLTPEDFARAQKYCKYAGSALQYEDVSTAVQNLQKALKLLTTGRE [VTA1]"
  TARGET: "HeLa Kyoto"
  READOUT_NUMBER: -1.99
- SUBSTANCE: "MAGKAHRLSAEERDQLLPNLRAVGWNELEGRDAIFKQFHFKDFNRAFGFMTRVALQAEKLDHHPEWFNVYNKVHITLSTHECAGLSERDINLASFIEQVAVSMT [PCBD1]"
  TARGET: "HeLa Kyoto"
  READOUT_NUMBER: 1.22
- SUBSTANCE: "HNRNPK"
  TARGET: "HeLa Kyoto"
  READOUT_NUMBER: -0.521
